# target-of-assay: p-EGFR L858R (BaF3-L858R cells) (Homo sapiens, UniProt P00533, L858R)
# test-method-notes: Cell p-EGFR inhibition assay, HTRF, BaF3-L858R cells
# experimental-conditions: 16 h treatment, pEGFR inhibition
Quick reference for IC50 among some compounds
Answer format: numeric, nM implied, no suffix.

Recorded IC50, per entry:
compound	IC50 / nM
COC[C@@H]1CN(c2ccc3c(c2)N2CC4CC[C@H](COc5c(cnn5C)-c5cc(cc(C)n5)C(=O)/N=C/2N3)C4)CCN1CC1CN(c2cc(F)c([C@H]3CCC(=O)NC3=O)c(F)c2)C1	17.2
Cc1cc2cc(n1)-c1c(C)nn(C)c1OC[C@H]1CCC(C1)CN1/C(=N/C2=O)Nc2ccc(N3CCN(C4CCN(c5ccc(C6CCC(=O)NC6=O)nc5C)CC4)CC3)cc21 (stereo partly drawn)	3.2

// moving on: another record for IC50
Return value of IC50 for input COC[C@@H]1CN(c2ccc3c(c2)N2CC4CC[C@H](COc5c(c(C)nn5C)-c5cc(cc(C)n5)C(=O)/N=C/2N3)C4)CCN1C1CCN(c2cc(F)c([C@H]3CCC(=O)NC3=O)c(F)c2)CC1 , no commentary. 3.8

---

# target-of-assay: p-EGFR L858R (BaF3-L858R cells) (Homo sapiens, UniProt P00533, L858R)
# test-method-notes: Cell p-EGFR inhibition assay, HTRF, BaF3-L858R cells
# experimental-conditions: 16 h treatment, pEGFR inhibition
measured-quantity: pIC50
Please note pIC50 is a logarithmic value: minus log10 of concentration in mol/L. Answer with that number alone.

As a guide, the following entries are already answered.
molecule	pIC50
COC[C@H]1CN(c2ccc3c(c2)N2C[C@@H]4CC[C@H](COc5c(c(C)nn5C)-c5cc(cc(Cl)n5)C(=O)/N=C/2N3)C4)CCN1C1CCN(c2cc(F)c([C@H]3CCC(=O)NC3=O)c(F)c2)CC1	7.82
Cc1cc2cc(n1)-c1c(C)nn(C)c1OC[C@H]1CC[C@H](C1)CN1/C(=N/C2=O)Nc2ccc(N3CCN([C@@H]4CCN(c5ccc(OC6CCC(=O)NC6=O)cc5)C[C@@H]4F)CC3)cc21 (stereo partly drawn)	8.26

Alright, here's another molecule for you.
Tell me its pIC50 on p-EGFR L858R (BaF3-L858R cells) (Homo sapiens, UniProt P00533, L858R): Cc1cc2cc(n1)-c1c(C)nn(C)c1OC[C@H]1CC[C@H](C1)CN1/C(=N/C2=O)Nc2ccc(N3C[C@@H](C)N(C4CCN(c5cc(F)c([C@H]6CCC(=O)NC6=O)c(F)c5)CC4)C[C@H]3C)cc21 8.51

---

# target-of-assay: p-EGFR Del19/C797S (H1975-clone #23 cells) (Homo sapiens)
# test-method-notes: Cell p-EGFR inhibition assay, HTRF, H1975-clone#23 (DEL19/C797S) cells
# Type: cell-based
# experimental-conditions: 16 h treatment, maximum percentage of pEGFR inhibition
measured-quantity: Imax (%)
Give your result in % as a bare value.

Here is how some compounds turned out for Imax (%).
compound	measured-quantity	readout-number
Cc1cc2cc(n1)-c1cnn(C)c1OC[C@H]1CCC(C1)CN1/C(=N/C2=O)Nc2ccc(N3CCN(C4(CO)CCN(c5ccc(C6CCC(=O)NC6=O)nc5C)CC4)CC3)cc21 (some centres unmarked)	Imax (%)	100.5
CC[C@@H]1CN(c2ccc3c(c2)N2C[C@@H]4CC[C@H](COc5c(c(C)nn5C)-c5cc(cc(C)n5)C(=O)/N=C/2N3)C4)CCN1C1CCN(c2cc(F)c([C@H]3CCC(=O)NC3=O)c(F)c2)CC1	Imax (%)	99.79
COC[C@H]1CN(c2ccc3c(c2)N2C[C@H]4CC[C@@H](COc5c(c(C)nn5C)-c5cc(cc(C)n5)C(=O)/N=C/2N3)C4)CCN1C1CCN(c2cc(F)c([C@H]3CCC(=O)NC3=O)c(F)c2)CC1	Imax (%)	100.12
Cc1cc2cc(n1)-c1c(C)nn(C)c1OC[C@H]1CCC(C1)CN1/C(=N/C2=O)Nc2ccc(N3CCN(C4CCN(c5ccc(C6CCC(=O)NC6=O)nc5C)CC4)CC3)cc21 (some centres unmarked)	Imax (%)	101.7

Send back p-EGFR Del19/C797S (H1975-clone #23 cells) (Homo sapiens) Imax (%) of Cc1cc2cc(n1)-c1cnn(C)c1OC[C@H]1CCC(C1)CN1/C(=N/C2=O)Nc2cc(C)c(N3CCN([C@@H]4CCN(c5ccc(C6CCC(=O)NC6=O)nc5C)C[C@@H]4F)CC3)cc21 (some centres unmarked) only. 100.5

---

# target-of-assay: EGFR-L858R/C797S (H1975-clone #8 cells) (Homo sapiens, UniProt P00533, C797S/L858R)
# Construct: expressed in transfected cells; host or cells: H1975 (endogenous EGFR knocked out, clone #8)
# test-method-notes: Cell degradation of EGFR, HTRF assay, H1975-clone#8 (L858R/C797S) cells
# Assay type: cell-based
# experimental-conditions: 16 h treatment, maximum percentage of degradation
Measured Dmax determines class: 0: < 80%; 1: ≥ 80% and < 90%; 2: ≥ 90%

molecule	target-of-assay	group
COC[C@@H]1CN(c2cc3c(cc2F)N/C2=N\C(=O)c4cc(C)nc(c4)-c4cnn(C)c4OC[C@H]4CCC(C4)CN23)CCN1C1CCN(c2cc(F)c([C@H]3CCC(=O)NC3=O)c(F)c2)CC1	EGFR-L858R/C797S (H1975-clone #8 cells) (Homo sapiens, UniProt P00533, C797S/L858R)	0
COC[C@H]1CN(c2ccc3c(c2)N2C[C@@H]4CC[C@H](COc5c(cnn5C)-c5cc(cc(C)n5)C(=O)/N=C/2N3)C4)CCN1C1CCN(c2cc(F)c([C@H]3CCC(=O)NC3=O)c(F)c2)CC1	EGFR-L858R/C797S (H1975-clone #8 cells) (Homo sapiens, UniProt P00533, C797S/L858R)	0
Cc1cc2cc(n1)-c1cnn(CCO)c1OC[C@H]1CCC(C1)CN1/C(=N/C2=O)Nc2ccc(N3CCN(C4CCN(c5cc(F)c([C@H]6CCC(=O)NC6=O)c(F)c5)CC4)CC3)cc21	EGFR-L858R/C797S (H1975-clone #8 cells) (Homo sapiens, UniProt P00533, C797S/L858R)	0
Cc1cc2cc(n1)-c1c(C)nn(C)c1OC[C@H]1CC[C@H](C1)CN1/C(=N/C2=O)Nc2ccc(N3CCN(C4CCN(c5cc(F)c([C@H]6CCC(=O)NC6=O)c(F)c5)CC4)C[C@H]3C)cc21	EGFR-L858R/C797S (H1975-clone #8 cells) (Homo sapiens, UniProt P00533, C797S/L858R)	2
Cc1cc2cc(n1)-c1cnn(C)c1OC[C@H]1CC[C@H](C1)CN1/C(=N/C2=O)Nc2ccc(N3CCN([C@H]4CCN(c5ccc(C6CCC(=O)NC6=O)nc5C)C[C@H]4F)CC3)cc21 (stereo partly drawn)	EGFR-L858R/C797S (H1975-clone #8 cells) (Homo sapiens, UniProt P00533, C797S/L858R)	1

Hi there! Could you help me figure out the category for Cc1cc2cc(n1)-c1c(C)nn(C)c1OC[C@H]1CCC(C1)CN1/C(=N/C2=O)Nc2ccc(N3CCC(N(C)C4CCN(c5cc(F)c([C@H]6CCC(=O)NC6=O)c(F)c5)CC4)CC3)cc21 please? 0

Which Dmax category applies to Cc1cc2cc(n1)-c1c(C)nn(C)c1OC[C@H]1CC[C@H](C1)CN1/C(=N/C2=O)Nc2ccc(N3C[C@@H](C)N(C4CCN(c5cc(F)c([C@H]6CCC(=O)NC6=O)c(F)c5)CC4)C[C@@H]3C)cc21 here? 2

Bin this entry: COC[C@H]1CN(c2cc3c(cc2C)N/C2=N\C(=O)c4cc(C)nc(c4)-c4c(C)nn(C)c4OC[C@H]4CC[C@H](C4)CN23)CCN1C1CCN(c2cc(F)c([C@H]3CCC(=O)NC3=O)c(F)c2)CC1 1

Determine which band this molecule sits in: COC[C@@H]1CN(c2ccc3c(c2)N2CC4CC[C@H](COc5c(cnn5C)-c5cc(cc(C)n5)C(=O)/N=C/2N3)C4)CCN1CC1CN(c2cc(F)c([C@H]3CCC(=O)NC3=O)c(F)c2)C1 0

Where would Cc1cc2cc(n1)-c1cnn(C)c1OC[C@H]1CCC(C1)CN1/C(=N/C2=O)Nc2ccc(N3CCN(C4CCN(c5cc(F)c(C6CCC(=O)NC6=O)c(F)c5)CC4)[C@@H](C)C3)cc21 (stereo partly drawn) land among the classes by reported Dmax? 0

Class label required: Cc1cc2cc(n1)-c1c(C)nn(C)c1OC[C@H]1CC[C@H](C1)CN1/C(=N/C2=O)Nc2ccc(N3CCC(CN(C)C4CCN(c5cc(F)c([C@H]6CCC(=O)NC6=O)c(F)c5)CC4)CC3)cc21 1
